Experiment: Displacement of [3H]-DTG from sigma 2-type opioid receptor in rat liver membrane in presence of (+)-pentazocine
Assay type: cell membranes
Readout kind: log10 Ki (log10 of the value in nM)
Note the log scale: values are log10 of Ki expressed in nM.

CC(C)=CCN1CC[C@]2(C)c3cc(O)ccc3C[C@H]1[C@H]2C [(+)-PENTAZOCINE] :: 3.27

Query: Consider the compound shown here: "COc1cccc(OC)c1[C@H]1CC[C@@H](N2CCN(c3ccccn3)CC2)CC1" What is its recorded log10 Ki?
Result: 2.84

Query: GET /values?readout=log10 Ki&item= "COc1ccc([C@H]2CC[C@H](N3CCN(c4ccccn4)CC3)CC2)cc1"
Result: 2.35

Query: What does the data say about its log10 Ki? Entry: "Cc1cccc(C)c1[C@H]1CC[C@@H](N2CCN(c3ccccn3)CC2)CC1"
Result: 1.78

Query: What value of log10 Ki has been reported for the following compound? "Fc1cccc(F)c1[C@H]1CC[C@@H](N2CCN(c3ccccn3)CC2)CC1"
Result: 2.64

Query: # input compound: "c1ccc(CCN2CCCCC2)cc1" ; wanted: its log10 Ki
Result: 2.29

Query: Name the reported log10 Ki value associated with the compound "Cc1ccccc1[C@H]1CC[C@@H](N2CCN(c3ccccn3)CC2)CC1"
Result: 1.85

Query: Param item = "CCCN(CCC)CCc1ccc(OC)c(OCCc2ccccc2)c1" ; retrieve measured log10 Ki.
Result: 2.33

Query: Item under review: Cc1cccc(C)c1C1=CCC(N2CCN(c3ccccn3)CC2)CC1 (racemic) . Reported log10 Ki?
Result: 2.05

Query: Reported log10 Ki, compound COc1ccc2c(c1)CCC(CN1CCN(c3ccccn3)CC1)C2 (stereo not given) : ____
Result: 3.10

Query: Value lookup for log10 Ki; key = "COc1ccc([C@H]2CC[C@@H](N3CCN(c4ccccn4)CC3)CC2)cc1"
Result: 1.80

Query: What value of measured log10 Ki is listed for "COc1ccccc1[C@H]1CC[C@@H](N2CCN(c3ccccn3)CC2)CC1" ?
Result: 2.38

Query: For "c1ccc([C@H]2CC[C@@H](N3CCN(c4ccccn4)CC3)CC2)cc1" , what is its reported log10 Ki?
Result: 1.79

Query: Requested field: log10 Ki. Item: "COc1cccc(OC)c1[C@H]1CC[C@H](N2CCN(c3ccccn3)CC2)CC1"
Result: 1.40

Query: I am curious: what log10 Ki value has been reported for "COc1ccccc1[C@H]1CC[C@H](N2CCN(c3ccccn3)CC2)CC1" ?
Result: 1.48

###

Species: Cavia porcellus
Assay: Selectivity ratio of Ki for sigma 1 receptor in guinea pig brain membrane without cerebellum to Ki for EBP in guinea pig liver membrane
Format: cell membranes
Readout kind: Ratio Ki
Reply: number alone, nothing else.

Clc1ccccc1[C@H]1CC[C@@H](N2CCN(c3ccccn3)CC2)CC1 :: 13
Cc1ccccc1[C@H]1CC[C@H](N2CCN(c3ccccn3)CC2)CC1 :: 3.4
Clc1ccccc1[C@H]1CC[C@H](N2CCN(c3ccccn3)CC2)CC1 :: 26
COc1ccc([C@H]2CC[C@@H](N3CCN(c4ccccn4)CC3)CC2)cc1 :: 4
c1ccc([C@H]2CC[C@@H](N3CCN(c4ccccn4)CC3)CC2)cc1 :: 16
Cc1ccccc1[C@H]1CC[C@@H](N2CCN(c3ccccn3)CC2)CC1 :: 200
c1ccc(CCN2CCCCC2)cc1 :: 0.5
COc1cccc(OC)c1[C@H]1CC[C@H](N2CCN(c3ccccn3)CC2)CC1 :: 31

Query: # get_value(readout='Ratio Ki', item= "Cc1cccc(C)c1[C@H]1CC[C@@H](N2CCN(c3ccccn3)CC2)CC1" )
Result: 0.2

###

Target: D(2) dopamine receptor (Rattus norvegicus)
Sequence (P61169 whole entry): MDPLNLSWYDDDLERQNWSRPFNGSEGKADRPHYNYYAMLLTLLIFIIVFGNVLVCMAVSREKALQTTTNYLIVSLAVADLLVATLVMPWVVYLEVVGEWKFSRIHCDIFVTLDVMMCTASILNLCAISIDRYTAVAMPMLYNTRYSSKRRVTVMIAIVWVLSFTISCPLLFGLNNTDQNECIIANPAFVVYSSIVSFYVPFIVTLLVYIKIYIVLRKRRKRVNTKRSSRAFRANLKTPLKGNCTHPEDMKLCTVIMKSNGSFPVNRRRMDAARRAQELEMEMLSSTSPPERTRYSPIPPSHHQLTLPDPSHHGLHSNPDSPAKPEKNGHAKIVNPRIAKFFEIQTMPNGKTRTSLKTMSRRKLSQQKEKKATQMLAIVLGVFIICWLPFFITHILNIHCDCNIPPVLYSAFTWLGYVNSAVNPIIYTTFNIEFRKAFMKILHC
Test: Displacement of [3H]spiroperidol from dopamine D2 receptor in rat striatal membrane
Strictly below 1 µM in Ki: T. Otherwise: F.

Please review the entries below; each comes with its answer.
COc1ccccc1[C@H]1CC[C@@H](N2CCN(c3ccccn3)CC2)CC1 :: F
COc1cccc([C@H]2CC[C@@H](NCCOc3ccccn3)CC2)c1 :: T
COc1cccc([C@H]2CC[C@@H](N3CCN(c4cccc5ccccc45)CC3)CC2)c1 :: F
COc1cccc([C@H]2CC[C@@H](N3CCN(c4ccccc4)CC3)CC2)c1 :: F

Turning now to a further record.
Query: Ki under 1 µM? Item: "COc1ccc([C@H]2CC[C@@H](N3CCN(c4ccccn4)CC3)CC2)cc1"
Result: T

###

In this section we review reported pKi values for a set of compounds.
Target: Sigma non-opioid intracellular receptor 1 (Cavia porcellus)
Test: Displacement of [3H](+)-pentazocine from sigma 1 receptor in guinea pig brain membrane without cerebellum
// pKi is dimensionless: -log10 of concentration (M)

Query: Requested read-out: pKi. Entry: "COc1cccc(OC)c1[C@H]1CC[C@H](N2CCN(c3ccccn3)CC2)CC1"
Result: 6.67

###

Molecular target: Sigma non-opioid intracellular receptor 1 (Cavia porcellus, UniProt Q60492)
Sequence (Q60492 whole entry): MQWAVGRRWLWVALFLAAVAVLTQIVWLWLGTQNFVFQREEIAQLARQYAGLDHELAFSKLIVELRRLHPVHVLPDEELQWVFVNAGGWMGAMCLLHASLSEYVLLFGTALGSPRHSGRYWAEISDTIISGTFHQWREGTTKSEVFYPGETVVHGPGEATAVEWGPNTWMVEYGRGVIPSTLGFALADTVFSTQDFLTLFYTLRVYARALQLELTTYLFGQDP
Assay: Displacement of [3H](+)-pentazocine from sigma 1 receptor in guinea pig brain membrane without cerebellum
Each entry below carries its reported pKi.
Worth noting: pKi values are minus log10 of concentrations stated in mol/L.

c1ccc([C@H]2CC[C@H](N3CCN(c4ccccn4)CC3)CC2)cc1 :: 6.98
c1ccc(CCN2CCCCC2)cc1 :: 6.51
COc1cccc([C@H]2CC[C@@H](N3CCN(c4ccccn4)CC3)CC2)c1 :: 6.75
Cc1ccccc1[C@H]1CC[C@H](N2CCN(c3ccccn3)CC2)CC1 :: 7.51

Query: Test system Sigma non-opioid intracellular receptor 1 (Cavia porcellus, UniProt Q60492); read-out pKi; what value for "Cc1cccc(C)c1[C@H]1CC[C@@H](N2CCN(c3ccccn3)CC2)CC1" ?
Result: 8.20

Query: What is its pKi for Sigma non-opioid intracellular receptor 1 (Cavia porcellus, UniProt Q60492)? Entry: "COc1ccccc1[C@H]1CC[C@H](N2CCN(c3ccccn3)CC2)CC1"
Result: 8.54

Query: Checklist item: pKi tested on Sigma non-opioid intracellular receptor 1 (Cavia porcellus, UniProt Q60492), entry "Cc1ccccc1[C@H]1CC[C@@H](N2CCN(c3ccccn3)CC2)CC1" , value?
Result: 6.00

###

System: PC-3
Assay: Antiproliferative activity against human PC3 cells expressing EBP after 48 hrs by MTT assay
Type: functional, cell-based
Readout kind: EC50 (µM)
Please state the figure in µM; there is no need to write the unit.

Before answering, review these 5 worked examples.
COc1cccc(OC)c1[C@H]1CC[C@@H](N2CCN(c3ccccn3)CC2)CC1 :: 12.9
COc1ccccc1[C@H]1CC[C@@H](N2CCN(c3ccccn3)CC2)CC1 :: 19.3
CCCN(CCC)CCc1ccc(OC)c(OCCc2ccccc2)c1 :: 47
CC(C)=CCN1CC[C@]2(C)c3cc(O)ccc3C[C@H]1[C@H]2C [(+)-PENTAZOCINE] :: 86.9
Cc1ccccc1[C@H]1CC[C@@H](N2CCN(c3ccccn3)CC2)CC1 :: 38

Query: Which value of EC50 has been reported for "Fc1cccc(F)c1[C@H]1CC[C@@H](N2CCN(c3ccccn3)CC2)CC1" in the records?
Result: 37.3

Query: Please give the measured EC50 for this molecule: CC(C(O)c1ccc(O)cc1)N1CCC(Cc2ccccc2)CC1 (racemic)
Result: 25.8

Query: Endpoint output: EC50 of "COc1cccc([C@H]2CC[C@H](N3CCN(c4ccccn4)CC3)CC2)c1" . Value?
Result: 23

Query: What does the record list as EC50 for COc1cccc2c1CCCC2CCCN1CCN(C2CCCCC2)CC1 (centres undefined) ?
Result: 37.7

###

Assay: Displacement of [3H]-DTG from sigma 2-type opioid receptor in rat liver membrane in presence of (+)-pentazocine
Assay type: cell membranes
pKi: −log10 of the molar value.
Quick rule for you: pKi at 8 or higher means yes, lower means no.

Cc1ccccc1NC(=N)Nc1ccccc1C :: no
Cc1ccccc1[C@H]1CC[C@H](N2CCN(c3ccccn3)CC2)CC1 :: no

Query: Given "c1ccc([C@H]2CC[C@H](N3CCN(c4ccccn4)CC3)CC2)cc1" , state whether its pKi is at least 8.
Result: no

Query: Hi team, for "Clc1ccccc1[C@H]1CC[C@@H](N2CCN(c3ccccn3)CC2)CC1" , is the recorded pKi at or above 8?
Result: no

Query: Hi team, for COc1cccc2c1CCCC2CCCN1CCN(C2CCCCC2)CC1 (stereo not given) , is the recorded pKi at or above 8?
Result: yes

Query: Test whether the compound "COc1cccc([C@H]2CC[C@H](N3CCN(c4ccccn4)CC3)CC2)c1" records pKi of 8 or higher.
Result: no

Query: Hello, I need to know if "Clc1ccccc1[C@H]1CC[C@H](N2CCN(c3ccccn3)CC2)CC1" has measured pKi not below 8. Thanks!
Result: no

Query: Reported pKi reaches at least 8 for "COc1cccc([C@H]2CC[C@@H](N3CCN(c4ccccn4)CC3)CC2)c1" ?
Result: no

Query: Does pKi meet or surpass 8 for CC(C(O)c1ccc(O)cc1)N1CCC(Cc2ccccc2)CC1 (racemic) [IFENPRODIL] ?
Result: yes

Query: Given "Fc1cccc(F)c1[C@H]1CC[C@H](N2CCN(c3ccccn3)CC2)CC1" , state whether its pKi is at least 8.
Result: no
